Study Target: SARS-CoV-2 M^pro (Severe acute respiratory syndrome coronavirus 2, UniProt P0DTD1)
Measured Property: pIC50
As a rule, pIC50 stands for the negative log10 of the concentration, concentration in M.

>>> experimental_value("COC(=O)c1ccc(C2NC(=S)NC(C(F)(F)F)=C2C(=O)N[C@@H](Cc2c[nH]cn2)C(=O)O)cc1 (stereo partly drawn)")
4.46
>>> experimental_value("O=C(O)C[C@H](NC(=O)C1=C(C(F)(F)F)NC(=S)NC1c1ccc(C(F)(F)F)cc1)C(=O)O (stereo partly drawn)")
4.35
>>> experimental_value("NC1CCCN(CC(=O)SC2=NC(c3ccc(C(F)(F)F)cc3)C(C(=O)N[C@@H](Cc3ccc(O)cc3)C(=O)O)=C(C(F)(F)F)N2)C1 (stereo partly drawn) [12g]")
6.68

[in] Return pIC50 measured with SARS-CoV-2 M^pro (Severe acute respiratory syndrome coronavirus 2, UniProt P0DTD1) given this compound: O=C(N[C@@H](Cc1c[nH]cn1)C(=O)O)C1=C(C(F)(F)F)NC(=S)NC1c1ccc(C(F)(F)F)cc1 (stereo partly drawn)
[out] 4.51

[in] Return pIC50 measured with SARS-CoV-2 M^pro (Severe acute respiratory syndrome coronavirus 2, UniProt P0DTD1) given this compound: O=C(N[C@@H](Cc1ccc(O)cc1)C(=O)O)C1=C(C(F)(F)F)NC(=S)NC1c1ccc(C(F)(F)F)cc1 (stereo partly drawn)
[out] 4.60

[in] Return pIC50 measured with SARS-CoV-2 M^pro (Severe acute respiratory syndrome coronavirus 2, UniProt P0DTD1) given this compound: COC(=O)c1ccc(C2N=C(SC(=O)CN3CCn4c(nnc4C(F)(F)F)C3)NC(C(F)(F)F)=C2C(=O)N[C@@H](Cc2c[nH]cn2)C(=O)O)cc1 (stereo partly drawn) [12l]
[out] 7.27

[in] Return pIC50 measured with SARS-CoV-2 M^pro (Severe acute respiratory syndrome coronavirus 2, UniProt P0DTD1) given this compound: O=C(CN1CCn2c(nnc2C(F)(F)F)C1)SC1=NC(c2ccc(C(F)(F)F)cc2)C(C(=O)N[C@@H](Cc2ccc(O)cc2)C(=O)O)=C(C(F)(F)F)N1 (stereo partly drawn) [12e]
[out] 6.14

[in] Return pIC50 measured with SARS-CoV-2 M^pro (Severe acute respiratory syndrome coronavirus 2, UniProt P0DTD1) given this compound: CS(=O)(=O)n1cc2c(n1)CN(CC(=O)SC1=NC(c3ccc(C(F)(F)F)cc3)C(C(=O)N[C@@H](Cc3c[nH]cn3)C(=O)O)=C(C(F)(F)F)N1)C2 (stereo partly drawn) [12h]
[out] 4.79

[in] Return pIC50 measured with SARS-CoV-2 M^pro (Severe acute respiratory syndrome coronavirus 2, UniProt P0DTD1) given this compound: O=C(O)CC[C@H](NC(=O)C1=C(C(F)(F)F)NC(SC(=O)CN2CCn3c(nnc3C(F)(F)F)C2)=NC1c1ccc(C(F)(F)F)cc1)C(=O)O (stereo partly drawn) [12a]
[out] 6.82

###

Assay Text: MTT cytotoxic assay in Vero-E6 cells
Format: cell-based
Stated Conditions: African green monkey
Below, each entry is listed with its recorded CC50 at 48 h.
Provide the reading as a plain figure in µM.

>>> experimental_value("COC(=O)c1ccc(C2N=C(SC(=O)CN3CCn4c(nnc4C(F)(F)F)C3)NC(C(F)(F)F)=C2C(=O)N[C@@H](Cc2c[nH]cn2)C(=O)O)cc1 (stereo partly shown) [12l]")
198

[in] What measured CC50 at 48 h goes with CS(=O)(=O)n1cc2c(n1)CN(CC(=O)SC1=NC(c3ccc([N+](=O)[O-])cc3)C(C(=O)Nc3ccc(S(=O)(=O)O)cc3)=C(C(F)(F)F)N1)C2 (stereo not shown) [12k] ?
[out] 239

[in] What measured CC50 at 48 h goes with CS(=O)(=O)n1cc2c(n1)CN(CC(=O)SC1=NC(c3ccc([N+](=O)[O-])cc3)C(C(=O)N[C@@H](CCC(=O)O)C(=O)O)=C(C(F)(F)F)N1)C2 (stereo partly shown) [12j] ?
[out] 211

[in] What measured CC50 at 48 h goes with CS(=O)(=O)n1cc2c(n1)CN(CC(=O)SC1=NC(c3ccc(C(F)(F)F)cc3)C(C(=O)N[C@@H](Cc3ccc(O)cc3)C(=O)O)=C(C(F)(F)F)N1)C2 (stereo partly shown) [12i] ?
[out] 243
